# Tested on: NCI-H23 lung
# assay_name: NCI tumour cell line growth inhibition, 48 h; in the data active means GI50 below about 0.43 µM; inactive means the rest
Outcome field: choose from active, inactive

[[record]]
molecule = "COc1ccccc1CN=C1NC(=O)/C(=C/c2ccc3ncccc3c2)S1"
assigned_class = "inactive"

[[record]]
molecule = "CC/C=C\\C[C@H](O)C/C=C1/C(=O)C=C[C@@H]1C/C=C\\CCCC(=O)OCCS(=O)(=O)c1ccccc1"
assigned_class = "inactive"

[[record]]
molecule = "CC[C@@]1(O)C(=O)OCc2c1cc1n(c2=O)Cc2cc3c([N+](=O)[O-])c(O)ccc3nc2-1"
assigned_class = "active"

[[record]]
molecule = "CC[C@]12C=CCN3CC[C@@]4(c5ccc(OC)cc5N(C)[C@H]4[C@@](O)(C(=O)OC)[C@@H]1OC(=O)CCCC[P+](c1ccccc1)(c1ccccc1)c1ccccc1)[C@@H]32"
assigned_class = "inactive"


Hello, I am checking results. What call was entered for `C/C(=N\NC(=O)c1cccc(S(=O)(=O)N2CCN(C)CC2)c1)c1cc(Cl)ccc1O` ?
inactive

Another: COc1ccc(C(=O)OC2C(OC3C(O)COC(O[C@H]4C[C@H]5[C@@H]6CC=C7C[C@@H](O)CC[C@]7(C)[C@H]6CC[C@]5(C)[C@H]4[C@H](C)C(=O)CCC(C)C)C3OC(=O)C(C)C)OCC(O)C2O)cc1 (stereo not given in full)
active

Another: `CC(C)C[C@H](NC(=O)[C@H](Cc1ccccc1)NC(=O)c1cnccn1)B(O)O`
active
